# experiment: Pharmacokinetic evaluation in rats, oral administration
# Parameters: species or system SD rats
# condition-set: rat, in vivo, p.o. 5 mg/kg, plasma
measurement-label: Tmax
State the value, then name its unit.

Below: 2 molecules and their reported Tmax.
Cc1cc(-n2nc3c(c2-n2ccn(-c4ccc5c(cnn5C5CC5)c4F)c2=O)[C@H](C)N(C(=O)c2cc4cc([C@H]5CCOC(C)(C)C5)ccc4n2[C@@]2(c4noc(=O)[nH]4)C[C@@H]2C)CC3)cc(C)c1F : 6 h
[2H]C([2H])([2H])n1nc2c3c(c(-n4ccn(-c5c6c(nn5-c5cc(C)c(F)c(C)c5)CCN(C(=O)c5cc7cc([C@H]8CCOC(C)(C)C8)ccc7n5[C@@]5(c7noc(=O)[nH]7)C[C@@H]5C)[C@H]6C)c4=O)ccc31)OCCC2 : 6 h

From here, focus on the item given below.
Which Tmax value belongs to Cc1cc(-n2nc3c(c2-n2ccn(-c4ccc5c6c(nn5C)CCCOc46)c2=O)[C@H](C)N(C(=O)c2cc4cc([C@H]5CCOC(C)(C)C5)ccc4n2[C@@]2(c4noc(=O)[nH]4)C[C@@H]2C)CC3)cc(C)c1F ?
4.7 h

* * *

# experiment: Pharmacokinetic evaluation in Macaca fascicularis monkeys, intravenous administration
# Format: in vivo
# condition-set: cynomolgus monkey, I.V. 0.2 mg/kg, plasma
measurement-label: AUC(0-inf) (ng·h/mL)
Provide the reading as a plain figure in ng·h/mL.

Which AUC(0-inf) value belongs to [2H]C([2H])([2H])n1nc2c3c(c(-n4ccn(-c5c6c(nn5-c5cc(C)c(F)c(C)c5)CCN(C(=O)c5cc7cc([C@H]8CCOC(C)(C)C8)ccc7n5[C@@]5(c7noc(=O)[nH]7)C[C@@H]5C)[C@H]6C)c4=O)ccc31)OCCC2 [Example 282] ?
1930

* * *

# experiment: Pharmacokinetic evaluation in beagles, oral administration
# Type: in vivo
# condition-set: dog, po, p.o. 2 mg/kg, plasma, read-out: tmax
Flag rule - Tmax less than 2 h flags Condition met; the remaining entries get Condition not met.

Record [2H]C([2H])(OC1CC1)[C@H]1C[C@]1(c1noc(=O)[nH]1)n1c(C(=O)N2CCc3nn(-c4cc(C)c(F)c(C)c4)c(-n4ccn(-c5ccc6c(cnn6C6CC6)c5F)c4=O)c3[C@@H]2C)cc2cc([C@H]3CCOC(C)(C)C3)ccc21 : is its Tmax strictly below 2 h?
Condition met

* * *

# experiment: Pharmacokinetic evaluation in mice, oral administration
# Type: in vivo, Balb/c mice
# condition-set: p.o. 5 mg/kg, plasma, single PK
measurement-label: tl/2

Below: 5 compounds and their reported tl/2.
CC#C[C@H]1C[C@]1(c1noc(=O)[nH]1)n1c(C(=O)N2CCc3nn(-c4cc(C)c(F)c(C)c4)c(-n4ccn(-c5ccc6c(cnn6C6CC6)c5F)c4=O)c3[C@@H]2C)cc2cc([C@H]3CCOC(C)(C)C3)ccc21 : 15.7 h
Cc1cc(-n2nc3c(c2-n2ccn(-c4ccc5c(cnn5C5CC5)c4F)c2=O)[C@H](C)N(C(=O)c2cc4cc([C@H]5CCOC(C)(C)C5)ccc4n2[C@@]2(c4noc(=O)[nH]4)[C@@H]4COC[C@@H]42)CC3)cc(C)c1F : 4.8 h
Cc1cc(-n2nc3c(c2-n2ccn(-c4cc5c6c(c4)CCC(=O)N6CCC5)c2=O)[C@H](C)N(C(=O)c2cc4cc([C@H]5CCOC(C)(C)C5)ccc4n2[C@@]2(c4noc(=O)[nH]4)C[C@@H]2C)CC3)cc(C)c1F : 7.8 h
Cc1cc(-n2nc3c(c2-n2ccn(-c4ccc5c(cnn5C5CC5)c4F)c2=O)[C@H](C)N(C(=O)c2cc4cc([C@H]5CCOC(C)(C)C5)ccc4n2[C@@]2(c4noc(=O)[nH]4)C[C@@H]2COC2CC2)CC3)cc(C)c1F : 7.6 h
Cc1cc(-n2nc3c(c2-n2ccn(-c4ccc5c(cnn5C5CC5)c4F)c2=O)[C@H](C)N(C(=O)c2cc4cc([C@H]5CCOC(C)(C)C5)ccc4n2[C@@]2(c4noc(=O)[nH]4)C[C@@H]2C)CC3)cc(C)c1C#N : 6.5 h

Which tl/2 value belongs to [2H]C([2H])([2H])n1nc2c3c(c(-n4ccn(-c5c6c(nn5-c5cc(C)c(F)c(C)c5)CCN(C(=O)c5cc7cc([C@H]8CCOC(C)(C)C8)ccc7n5[C@@]5(c7noc(=O)[nH]7)C[C@@H]5C)[C@H]6C)c4=O)ccc31)OCCC2 ?
9.7 h

Which tl/2 value belongs to Cc1cc(-n2nc3c(c2-n2ccn(-c4ccc5c6c(nn5C)CCCOc46)c2=O)[C@H](C)N(C(=O)c2cc4cc([C@H]5CCOC(C)(C)C5)ccc4n2[C@@]2(c4noc(=O)[nH]4)C[C@@H]2C)CC3)cc(C)c1F ?
10.3 h

Which tl/2 value belongs to C#C[C@H]1C[C@]1(c1noc(=O)[nH]1)n1c(C(=O)N2CCc3nn(-c4cc(C)c(F)c(C)c4)c(-n4ccn(-c5ccc6c(cnn6C6CC6)c5F)c4=O)c3[C@@H]2C)cc2cc([C@H]3CCOC(C)(C)C3)ccc21 ?
6.9 h

Which tl/2 value belongs to [2H]C([2H])([2H])n1nc2c3c(c(-n4ccn(-c5c6c(nn5-c5cc(C)c(F)c(C)c5)CCN(C(=O)c5cc7cc([C@H]8CCOC(C)(C)C8)ccc7n5[C@@]5(c7noc(=O)[nH]7)C[C@@H]5C#C)[C@H]6C)c4=O)ccc31)OCCC2 ?
3.0 h

* * *

Parameter: Cmax. Scope: all listed entries.
# experiment: Pharmacokinetic evaluation in mice, oral administration
# Format: in vivo, Balb/c mice
# condition-set: mouse, in vivo, po, p.o. 5 mg/kg, plasma, not marked single PK (cassette PK)
# Experimental: Balb/c mice were used as test animals to study the pharmacokinetic behavior of the compound of the present invention in mice (plasma) at a dose of 5 mg/kg administered orally and 1 mg/kg administered intravenously. Balb/c mice, 3 per group, male. […] 10 ml of PEG400, 10 ml of PG, and 80 ml of (100 mM glycine, 64 Mm NaOH, pH = 9) were measured into a 100 ml volumetric flask, vortexed, mixed homogeneously, and sonicated to obtain a clear solution. […]
Provide the reading as a plain figure in ng/mL.

Below: 3 molecules and their reported Cmax.
Cc1cc(-n2nc3c(c2-n2ccn(-c4ccc5c(cnn5C5CC5)c4F)c2=O)[C@H](C)N(C(=O)c2cc4cc([C@H]5CCOC(C)(C)C5)ccc4n2[C@@]2(c4noc(=O)[nH]4)C[C@@H]2C)CC3)cc(C)c1F [Example 25] : 2060
Cc1cc(-n2nc3c(c2-n2ccn(-c4ccc(CC(=O)N(C)C)cc4F)c2=O)[C@H](C)N(C(=O)c2cc4cc([C@H]5CCOC(C)(C)C5)ccc4n2[C@@]2(c4noc(=O)[nH]4)C[C@@H]2C)CC3)cc(C)c1F [Example 7] : 2970
[2H]C([2H])(OC1CC1)[C@H]1C[C@]1(c1noc(=O)[nH]1)n1c(C(=O)N2CCc3nn(-c4cc(C)c(F)c(C)c4)c(-n4ccn(-c5ccc6c(cnn6C6CC6)c5F)c4=O)c3[C@@H]2C)cc2cc([C@H]3CCOC(C)(C)C3)ccc21 [Example 194] : 1840

From here, focus on the item given below.
Which Cmax value belongs to C[C@H]1c2c(nn(-c3ccc(F)c(C4CC4)c3)c2-n2ccn(-c3ccc4c(c3)C3(CC3)C(=O)N4C)c2=O)CCN1C(=O)c1cc2cc([C@H]3CCOC(C)(C)C3)ccc2n1[C@@]1(c2noc(=O)[nH]2)C[C@@H]1C [Example 32] ?
1040

* * *

# experiment: Pharmacokinetic evaluation in beagles, oral administration
# Format: in vivo
# condition-set: dog, po, p.o. 2 mg/kg, plasma, read-out: tmax
measurement-label: Tmax (h)
Provide the reading as a plain figure in h.

CC#C[C@H]1C[C@]1(c1noc(=O)[nH]1)n1c(C(=O)N2CCc3nn(-c4cc(C)c(F)c(C)c4)c(-n4ccn(-c5ccc6c(cnn6C6CC6)c5F)c4=O)c3[C@@H]2C)cc2cc([C@H]3CCOC(C)(C)C3)ccc21 [Example 144] : 1.7
[2H]C([2H])([2H])n1nc2c3c(c(-n4ccn(-c5c6c(nn5-c5cc(C)c(F)c(C)c5)CCN(C(=O)c5cc7cc([C@H]8CCOC(C)(C)C8)ccc7n5[C@@]5(c7noc(=O)[nH]7)C[C@@H]5C#C)[C@H]6C)c4=O)ccc31)OCCC2 [Example 287] : 2.3
Cc1cc(-n2nc3c(c2-n2ccn(-c4ccc5c(cnn5C5CC5)c4F)c2=O)[C@H](C)N(C(=O)c2cc4cc([C@H]5CCOC(C)(C)C5)ccc4n2[C@@]2(c4noc(=O)[nH]4)C[C@@H]2COC2CC2)CC3)cc(C)c1F [Example 67] : 1.5
Cc1cc(-n2nc3c(c2-n2ccn(-c4ccc5c(cnn5C5CC5)c4F)c2=O)[C@H](C)N(C(=O)c2cc4cc([C@H]5CCOC(C)(C)C5)ccc4n2[C@@]2(c4noc(=O)[nH]4)[C@@H]4COC[C@@H]42)CC3)cc(C)c1F [Example 65-1] : 2.8
[2H]C([2H])([2H])n1nc2c3c(c(-n4ccn(-c5c6c(nn5-c5cc(C)c(F)c(C)c5)CCN(C(=O)c5cc7cc([C@H]8CCOC(C)(C)C8)ccc7n5[C@@]5(c7noc(=O)[nH]7)C[C@@H]5C)[C@H]6C)c4=O)ccc31)OCCC2 [Example 282] : 2

From here, focus on the item given below.
Which Tmax value belongs to Cc1cc(-n2nc3c(c2-n2ccn(-c4cc5c6c(c4)CCC(=O)N6CCC5)c2=O)[C@H](C)N(C(=O)c2cc4cc([C@H]5CCOC(C)(C)C5)ccc4n2[C@@]2(c4noc(=O)[nH]4)C[C@@H]2C)CC3)cc(C)c1F [Example 34] ?
1.7
